This document collects IC50 values reported for Myeloperoxidase (Homo sapiens).
I only need the number, in nM, no unit after it.

Note IC50 for the compound shown: Nc1cc(Cc2ccn(Cc3cccc(Oc4ccccc4)c3)n2)c2nn[nH]c2n1 44

Note IC50 for the compound shown: Nc1cc(Cc2ccn(-c3cccc(-c4ccccc4)c3)n2)c2nn[nH]c2n1 85

Note IC50 for the compound shown: Nc1cc(C2CCNCCc3cccc(c3)OCc3cccc(c3)Cn3cc2cn3)c2nn[nH]c2n1 (stereo not given) 17

Note IC50 for the compound shown: Nc1cc(C2CCNC34CCC(c5ccccc5)(CC3)[C@H](C4)Oc3cccc(c3)Cn3cc2cn3)c2nn[nH]c2n1 (stereo not given in full) 7

Note IC50 for the compound shown: Nc1cc(Cc2ccn(Cc3cccc(O[C@H]4CCNC4)c3)n2)c2nn[nH]c2n1 46
